# Assayed System: thrombin (Homo sapiens, UniProt P00734)
# Construct: consists of two polypeptide chains of 36 (light chain) and 259 amino acid
# Assay Explanation: Thrombin inhibition screen of crude macrocycle reactions (residual thrombin activity, fluorogenic substrate Z-Gly-Gly-Arg-AMC)
# Format: biochemical
# Condition Label: 10 µM macrocycle concentration; macrocycles containing acid 14; crude reaction; original screen
Measure: % thrombin activity, Original screen (%)

Worked examples follow.
[
  {
    "Molecule": "O=C1NC2(CCN(C(=O)c3ccc(Cl)s3)CC2)C(=O)N[C@@H](CO)C(=O)NCCSSCCC(=O)N2CCC[C@H]1C2",
    "% thrombin activity, Original screen / %": 87.7
  },
  {
    "Molecule": "O=C1CCSSCCNC(=O)[C@@H](CNC(=O)c2ccc(Cl)s2)NC(=O)c2cccc(c2)CNC(=O)[C@H](Cc2c[nH]c3ccccc23)N1",
    "% thrombin activity, Original screen / %": 103.8
  },
  {
    "Molecule": "CCC(C)C1NC(=O)C(CNC(=O)c2ccc(Cl)s2)NC(=O)C2CCCN(C2)C(=O)CCSSCCNC1=O (stereo not shown)",
    "% thrombin activity, Original screen / %": 64.0
  },
  {
    "Molecule": "O=C1CCSSCCNC(=O)c2cccc(c2)CNC(=O)[C@H](Cc2ccccc2)NC(=O)[C@H](CCCNC(=O)c2ccc(Cl)s2)N1 [X D2 F B5]",
    "% thrombin activity, Original screen / %": 95.3
  },
  {
    "Molecule": "CC(C)C[C@@H]1NC(=O)CCSSCCNC(=O)c2cccc(c2)CNC(=O)[C@H](CCCNC(=O)c2ccc(Cl)s2)NC1=O [X L D2 B5]",
    "% thrombin activity, Original screen / %": 100.1
  }
]

a = O=C1CCSSCCNC(=O)C(Cc2c[nH]cn2)NC(=O)CCNC(=O)C(CNC(=O)c2ccc(Cl)s2)N1 (stereo not shown)
b = O=C1CCNC(=O)C2CC(NC(=O)c3ccc(Cl)s3)CN2C(=O)CCSSCCNC(=O)C(CO)N1 (stereo not shown)
Which shows the larger % thrombin activity, Original screen value: a or b ? Lab log: write the label of the selected item as the result.
b
(b: 115.0%, a: 78.9%)

---

# Assayed System: thrombin (Homo sapiens, UniProt P00734)
# Construct: consists of two polypeptide chains of 36 (light chain) and 259 amino acid
# Assay Explanation: Thrombin inhibition screen of crude macrocycle reactions (residual thrombin activity, fluorogenic substrate Z-Gly-Gly-Arg-AMC)
# Type: biochemical
# Condition Label: 10 µM macrocycle concentration; crude reactions, Library 1a-l; scaffold AA1-AA2-AA3 combined with 1-16 or '-'
Measure: percent residual thrombin activity (%)

[
  {
    "Compound": "COc1ccc(C(=O)NCCC[C@@H]2NC(=O)C3(CC3)CNC(=O)CCSSCCNC(=O)[C@H](Cc3ccc(O)cc3)NC2=O)cn1 [B6-D2-Y/10]",
    "Measure": "percent residual thrombin activity",
    "Recorded Result": 102.307
  },
  {
    "Compound": "O=C(COc1ccccc1)NCCCC[C@@H]1NC(=O)[C@H]2CCCN(C2)C(=O)CCSSCCNC(=O)[C@H](CO)NC1=O [B4-D1-S/13]",
    "Measure": "percent residual thrombin activity",
    "Recorded Result": 103.519
  },
  {
    "Compound": "COc1ccc(C(=O)NCCC[C@@H]2NC(=O)CCSSCCNC(=O)[C@@H](Cc3ccccc3)NC(=O)[C@H]3CCCN(C3)C2=O)cn1 [D2-B4-f/10]",
    "Measure": "percent residual thrombin activity",
    "Recorded Result": 107.675
  }
]

Just for reference, paper PMC9250534 is where these values come from.
